Test system: grafted B16 F0 murine melanoma tumour
experimental.protocol: Biodistribution of the ^125I-labelled molecules in the melanoma-bearing mouse (autoradiography of whole-body sections)
condition.details: brain; 1 H
Structures can show the parent of a compound that is named as a salt.
value.type: Biodistribution, Mean, brain

**Q:** # Biodistribution, Mean, brain lookup, item CCN(CC)CCNC(=O)c1ccc2cncc(I)c2n1.Cl.Cl
**A:** 0.35

**Q:** Looking for the measured Biodistribution, Mean, brain of CCN(CC)CCNC(=O)c1cnc2cc(I)ccc2n1.Cl.Cl , can you help?
**A:** 2.34

**Q:** Dear colleague, I am looking for the recorded Biodistribution, Mean, brain of the following molecule: CCN(CC)CCNC(=O)c1c[nH]c2ccc(I)cc2c1=O [compound 35, dihydrochloride]
**A:** 0.07

**Q:** For the molecule CCN(CC)CCNC(=O)c1cccc2cc3cc(I)ccc3nc12 [compound 111, dihydrochloride] , what Biodistribution, Mean, brain is on record?
**A:** 0.28

**Q:** Which Biodistribution, Mean, brain is listed for CCN(CC)CCNC(=O)c1cccc2c(Nc3ccc(NS(C)(=O)=O)cc3OC)c3cc(I)ccc3nc12 [compound 129, dihydrochloride] ?
**A:** 0.12

**Q:** So what's the measured Biodistribution, Mean, brain for this one? CCN(CC)CCNC(=O)c1cc2c(I)cccc2cn1 [compound 39, dihydrochloride]
**A:** 0.30

====

System: grafted B16 F0 murine melanoma tumour
experimental.protocol: Biodistribution of the ^125I-labelled molecules in the melanoma-bearing mouse (autoradiography of whole-body sections)
condition.details: 1 H after i.v. administration, ^125I-labelled compound
Where a name gives a salt, the structure may show the parent alone.
value.type: Concentration of radioactivity, kidney, Mean (% ID/g)
Just the number in % ID/g, nothing appended.

**Q:** Endpoint output: Concentration of radioactivity, kidney, Mean of CCN(CC)CCNC(=O)c1ccc2cc(I)ccc2n1.Cl.Cl . Value?
**A:** 11.82

**Q:** # query: Concentration of radioactivity, kidney, Mean of entry CCN(CC)CCNC(=O)c1cc2cc(I)ccc2[nH]1 [compound 10, hydrochloride]
**A:** 10.87

**Q:** Which Concentration of radioactivity, kidney, Mean value belongs to CCN(CC)CCNC(=O)c1nc2ccc(I)cc2[nH]1.Cl.Cl ?
**A:** 6.90

**Q:** For the compound shown here, CCN(CC)CCNC(=O)c1cc2c(I)cccc2s1.Cl , give the reported Concentration of radioactivity, kidney, Mean.
**A:** 5.61

**Q:** // Concentration of radioactivity, kidney, Mean lookup, key: CCN(CC)CCNC(=O)c1ccc(I)nc1 [compound 7, dihydrochloride]
**A:** 6.08

**Q:** Look at this compound and give its reported Concentration of radioactivity, kidney, Mean. CCN(CC)CCNC(=O)c1nc2ccccn2c1I [compound 16, dihydrochloride]
**A:** 7.12

**Q:** Entry under review: CCN(CC)CCNC(=O)c1ccc2cc(I)ccc2c1 [compound 3, hydrochloride] . Reported Concentration of radioactivity, kidney, Mean?
**A:** 13.30

====

Tested on: grafted B16 F0 murine melanoma tumour
experimental.protocol: Biodistribution of the ^125I-labelled molecules in the melanoma-bearing mouse (autoradiography of whole-body sections)
condition.details: thyroid; 3 H
Where a name gives a salt, the structure may show the parent alone.
Lab note: compare Biodistribution, Mean, thyroid against 40. Equal or greater, write 1 (yes). Smaller, write 0 (no).

**Q:** Tell me whether Biodistribution, Mean, thyroid is at least 40 here: CCN(CC)CCNC(=O)c1cc2c(I)cccc2cn1 [compound 39, dihydrochloride]
**A:** 0 (no)

**Q:** Biodistribution, Mean, thyroid >= 40 for CCN(CC)CCNC(=O)c1c[nH]c2ccc(I)cc2c1=O [compound 35, dihydrochloride] ?
**A:** 0 (no)

**Q:** Answer whether Biodistribution, Mean, thyroid of CCCN(CCC)CCCCNC(=O)c1ccc2cc(I)ccc2n1 [compound 49, dihydrochloride] is greater than or equal to 40.
**A:** 1 (yes)

**Q:** I'd appreciate it if you could say whether CCN(CC)CCNC(=O)c1ccc2cncc(I)c2n1.Cl.Cl has Biodistribution, Mean, thyroid at least equal to 40.
**A:** 1 (yes)
